Reference for the values: PubChem BioAssay AID1745848

Procedure details: Confirmatory qHTS for Inhibitors of ATXN expression; note: nearly all actives have a fitted effect of over 65% in size
Measurement parameters: ATXN2-luciferase reporter cells, luminescence, 24 h; series mostly up to 11.5 µM
Screen size: about 2,100 compounds; about 940 (45%) were called active. Roughly 48% stayed inconclusive and do not appear here. Calls come from the whole dose curve; as a rule, active = well fitted inhibition curve with a large enough effect; inconclusive = small, poorly fitted or top-dose-only effect; inactive = no such curve, though single readings can be large or run the other way. The set was probably picked from earlier hits. The list shows a part of the results.
In this exercise, the only acceptable responses are yes for active, no for inactive

[
  {
    "Compound": "CCN(CC)S(=O)(=O)c1cccc(NC(=O)Nc2cccc(C(F)(F)F)c2)c1",
    "Label class": "yes"
  },
  {
    "Compound": "Oc1ccc(CN2CCC(Cc3ccccc3)CC2)c2cccnc12",
    "Label class": "yes"
  }
]

For `C=CCn1cnc2c(c1=O)c1nc3ccccc3nc1n2/N=C/c1cc(OC)c(OC)c(OC)c1` , what call appears in the results of this test?
yes

Given `Oc1ccc(Cc2ccccc2)c2cccnc12` , state the outcome it received in this test.
yes

Outcome logged for `CC(=O)C(C(C)=O)c1c(Cl)c(O)c(O)c2c(C(=O)c3ccccc3)coc12` in this assay:
yes

What did the test return for `C=CCc1cccc(/C=N/NC(=O)CCC(=O)Nc2ccc(F)cc2)c1O` ?
yes

Call for entry `O=C(CCCN1C(=O)/C(=C/c2ccccc2Cl)SC1=S)NNC(=O)c1ccc(Cl)cc1Cl` :
yes

Each compound tested received a call. Report the one for `COc1ccc(/C=N/NC(=O)c2cccc([N+](=O)[O-])c2)c2ccccc12` .
yes

Outcome logged for `CCCCNC(=NCc1cccc(C(F)(F)F)c1)Nc1ccccc1` in this assay:
yes

What did this assay record as the result for `Cc1ccnc(N2C(=O)c3cccc4c([N+](=O)[O-])ccc(c34)C2=O)c1` ?
yes

Field: outcome | Entry: `COc1ccc(Cc2nnc(N/N=C/c3ccccc3O)[nH]c2=O)cc1OC`
yes

Hello, I am checking results. What call was entered for `C=CCOc1ccc(CNc2ccc3[nH]c(=O)[nH]c3c2)cc1OC` ?
no

GET /call?item= `CC(C)COc1cccc(C(=O)N(CC(=O)Nc2ccccc2C(F)(F)F)Cc2ccco2)c1` returns the recorded outcome of this test.
yes

Assay result, entry `COc1cc([C@@H]2c3cc4c(cc3[C@@H](O[C@@H]3O[C@@H]5CO[C@@H](C)O[C@H]5[C@H](O)[C@H]3O)[C@H]3COC(=O)[C@H]23)OCO4)cc(OC)c1O` — outcome?
yes

I'd appreciate the recorded outcome for Clc1ccc(COC(Cn2ccnc2)c2ccc(Cl)cc2Cl)c(Cl)c1 (stereo unspecified) from this test.
yes

Please state the recorded outcome for this compound: `COc1cc2ccnc(Cc3cccc(OC)c3OC)c2cc1OC`
yes

# outcome recorded in this test, key = `O=C1c2cccc3c([N+](=O)[O-])ccc(c23)C(=O)N1c1ccccn1`
yes

# fetch the recorded call for `O=C(CCCN1C(=O)/C(=C/c2ccccc2Cl)SC1=S)NNC(=O)c1ccc(Cl)cc1` here
yes

# fetch the recorded call for `O=c1c(Cc2ccccc2)c(O)nc2n1CCS2` here
no

Tell me the recorded outcome of this test for `Cc1ccc(C)n1-c1ccc(C(=O)N2CCC(C(N)=O)CC2)cc1` .
no

// outcome(item) with item = `Cn1c(CO)cnc1S(=O)(=O)Cc1ccc([N+](=O)[O-])cc1`
no

====

Procedure details: Confirmatory qHTS for Inhibitors of ATXN expression; note: nearly all actives have a fitted effect of over 65% in size
Measurement parameters: ATXN2-luciferase reporter cells, luminescence, 24 h; series mostly up to 11.5 µM
About 940 (45%) of roughly 2,100 compounds were called active. About 48% were inconclusive and are not listed. Calls come from the whole dose curve; as a rule, active = well fitted inhibition curve with a large enough effect; inconclusive = small, poorly fitted or top-dose-only effect; inactive = no such curve, though single readings can be large or run the other way. So high a share suggests a set chosen from earlier hits. The list shows a part of the results.
The categories you may choose from are active, inactive

// below: answered compounds
[
  {
    "Compound": "COC1C=CC=C(C)C(=O)NC2=CC(=O)C(N)=C(CC(C)CC(OC)C(O)C(C)C=C(C)C1OC(N)=O)C2=O (stereo not drawn)",
    "Label class": "active"
  },
  {
    "Compound": "CCC(=O)NC(c1ccco1)c1cc(Br)c2cccnc2c1O (stereo not drawn)",
    "Label class": "active"
  },
  {
    "Compound": "COc1ccc(NS(=O)(=O)c2ccc(C(=O)Nc3c(C)n(C)n(-c4ccccc4)c3=O)cc2)cc1",
    "Label class": "inactive"
  },
  {
    "Compound": "Cc1cccc2sc(NNC(=O)c3ccc(S(=O)(=O)N4CCCC(C)C4)cc3)nc12 (stereo not drawn)",
    "Label class": "active"
  },
  {
    "Compound": "Cc1ccc(/C=C2\\SC(=S)N(CCCC(=O)Nc3ccccc3C(=O)O)C2=O)cc1",
    "Label class": "active"
  },
  {
    "Compound": "C[C@H]1O[C@@H](O[C@H]2[C@@H](O)C[C@H](O[C@H]3[C@@H](O)C[C@H](O[C@H]4CC[C@@]5(C)[C@H](CC[C@@H]6[C@@H]5C[C@@H](O)[C@]5(C)[C@@H](C7=CC(=O)OC7)CC[C@]65O)C4)O[C@@H]3C)O[C@@H]2C)C[C@H](O)[C@@H]1O",
    "Label class": "active"
  },
  {
    "Compound": "CC(C)(C)c1ccc(OCCCC(=O)NNC(=O)c2ccccc2O)cc1",
    "Label class": "active"
  }
]

Now for another entry.
// outcome(item) with item = `Cc1ccc(NS(=O)(=O)c2ccc(C(=O)NNC(=O)c3ccccc3O)cc2)cc1`
active
